Values from paper PMC7518156

# assay text: Pharmacokinetics of ERL and GEF in Wistar rats after four weeks consumption of water or flavoured water (plasma, UPLC-MS/MS, non-compartmental analysis)
# Assay type: in vivo
# run parameters: male, Wistar, rat, plasma, po, 20 mg/kg, rats, 20 mg/kg oral; +Peach FW; average; time 2 h; read-out: Conc*10 (ng/mL plasma)
A collection of compounds and their measured concentration at 2 h
measured quantity: concentration at 2 h (ng/mL)

>>> recorded_number("COc1cc2ncnc(Nc3ccc(F)c(Cl)c3)c2cc1OCCCN1CCOCC1")
365
>>> recorded_number("C#Cc1cccc(Nc2ncnc3cc(OCCOC)c(OCCOC)cc23)c1")
111

* * *

Listing of recorded concentration at 0.5 h by entry.
# assay text: Pharmacokinetics of ERL and GEF in Wistar rats after four weeks consumption of water or flavoured water (plasma, UPLC-MS/MS, non-compartmental analysis)
# Type: in vivo
# run parameters: male, Wistar, rat, plasma, po, 20 mg/kg, rats, 20 mg/kg oral; +Pineapple FW; average; time 0.5 h; read-out: Conc*10 (ng/mL plasma)
measured quantity: concentration at 0.5 h (ng/mL)

>>> recorded_number("COc1cc2ncnc(Nc3ccc(F)c(Cl)c3)c2cc1OCCCN1CCOCC1 [GEF, Gefitinib]")
227
>>> recorded_number("C#Cc1cccc(Nc2ncnc3cc(OCCOC)c(OCCOC)cc23)c1 [ERL, Erlotinib]")
22.3

* * *

# assay text: Pharmacokinetics of ERL and GEF in Wistar rats after four weeks consumption of water or flavoured water (plasma, UPLC-MS/MS, non-compartmental analysis)
# Assay type: in vivo
# run parameters: male, Wistar, rat, plasma, po, 20 mg/kg, raw data sheet, from average profile; +Berry FW
Each item that follows carries a reported Cmax.
measured quantity: Cmax (ng/mL)

>>> recorded_number("COc1cc2ncnc(Nc3ccc(F)c(Cl)c3)c2cc1OCCCN1CCOCC1")
322
>>> recorded_number("C#Cc1cccc(Nc2ncnc3cc(OCCOC)c(OCCOC)cc23)c1")
110

* * *

# assay text: Pharmacokinetics of ERL and GEF in Wistar rats after four weeks consumption of water or flavoured water (plasma, UPLC-MS/MS, non-compartmental analysis)
# Type: in vivo
# run parameters: male, Wistar, rat, plasma, po, 20 mg/kg, rats, 20 mg/kg oral; drug alone (water); average; time 24 h; read-out: Conc*10 (ng/mL plasma)
# Method: Fifty healthy male Wistar rats weighing 250 ± 30 g were obtained from the animal house, College of Pharmacy, King Saud University, Riyadh, Saudi Arabia. Rats were randomly divided into ten cages (n = 5). […] Cmax and tmax were obtained from the corresponding plasma concentration–time curve (Figs. 1A and 1B). […] The area under the plasma concentration–time curve from time 0 to the last sampling time t, 48 h (AUC0–t) was calculated using the trapezoidal rule. […]
# key: entry, value: concentration at 24 h
measured quantity: concentration at 24 h (ng/mL)

>>> recorded_number("C#Cc1cccc(Nc2ncnc3cc(OCCOC)c(OCCOC)cc23)c1")
12.3
>>> recorded_number("COc1cc2ncnc(Nc3ccc(F)c(Cl)c3)c2cc1OCCCN1CCOCC1")
69.8

* * *

# Lookup of reported concentration at 0.5 h keyed by entry
# assay text: Pharmacokinetics of ERL and GEF in Wistar rats after four weeks consumption of water or flavoured water (plasma, UPLC-MS/MS, non-compartmental analysis)
# Assay type: in vivo
# run parameters: male, Wistar, rat, plasma, oral, 20 mg/kg, PKSolver sheet; dose 20 mg/kg; +Pineapple; time 0.5 h; read-out: Conc
measured quantity: concentration at 0.5 h (ng/mL)

>>> recorded_number("COc1cc2ncnc(Nc3ccc(F)c(Cl)c3)c2cc1OCCCN1CCOCC1")
227
>>> recorded_number("C#Cc1cccc(Nc2ncnc3cc(OCCOC)c(OCCOC)cc23)c1")
22.3

* * *

# assay text: Pharmacokinetics of ERL and GEF in Wistar rats after four weeks consumption of water or flavoured water (plasma, UPLC-MS/MS, non-compartmental analysis)
# Type: in vivo
# run parameters: male, Wistar, rat, plasma, po, 20 mg/kg, rats, 20 mg/kg oral; four weeks berry FW; n = 5, mean (SD)
Items are presented alongside their recorded CL/F.
measured quantity: CL/F (mL/min/kg)

>>> recorded_number("C#Cc1cccc(Nc2ncnc3cc(OCCOC)c(OCCOC)cc23)c1 [ERL, Erlotinib]")
241
>>> recorded_number("COc1cc2ncnc(Nc3ccc(F)c(Cl)c3)c2cc1OCCCN1CCOCC1 [GEF, Gefitinib]")
74.7

* * *

# assay text: Pharmacokinetics of ERL and GEF in Wistar rats after four weeks consumption of water or flavoured water (plasma, UPLC-MS/MS, non-compartmental analysis)
# Format: in vivo
# run parameters: male, Wistar, rat, plasma, oral, 20 mg/kg, PKSolver sheet; dose 20 mg/kg; +Berry; time 5 h; read-out: Conc
measured quantity: concentration at 5 h (ng/mL)

>>> recorded_number("C#Cc1cccc(Nc2ncnc3cc(OCCOC)c(OCCOC)cc23)c1")
45.6
>>> recorded_number("COc1cc2ncnc(Nc3ccc(F)c(Cl)c3)c2cc1OCCCN1CCOCC1")
150

* * *

# assay text: Pharmacokinetics of ERL and GEF in Wistar rats after four weeks consumption of water or flavoured water (plasma, UPLC-MS/MS, non-compartmental analysis)
# Assay type: in vivo
# run parameters: male, Wistar, rat, plasma, oral, 20 mg/kg, PKSolver sheet; dose 20 mg/kg; drug alone (water); time 1 h; read-out: Conc
// values below are reported concentration at 1 h
measured quantity: concentration at 1 h (ng/mL)

>>> recorded_number("C#Cc1cccc(Nc2ncnc3cc(OCCOC)c(OCCOC)cc23)c1 [ERL, Erlotinib]")
105
>>> recorded_number("COc1cc2ncnc(Nc3ccc(F)c(Cl)c3)c2cc1OCCCN1CCOCC1 [GEF, Gefitinib]")
220

* * *

Listed here: items and their measured concentration at 3 h.
# assay text: Pharmacokinetics of ERL and GEF in Wistar rats after four weeks consumption of water or flavoured water (plasma, UPLC-MS/MS, non-compartmental analysis)
# Type: in vivo
# run parameters: male, Wistar, rat, plasma, po, 20 mg/kg, rats, 20 mg/kg oral; +Pineapple FW; average; time 3 h; read-out: Conc*10 (ng/mL plasma)
measured quantity: concentration at 3 h

>>> result("C#Cc1cccc(Nc2ncnc3cc(OCCOC)c(OCCOC)cc23)c1 [ERL, Erlotinib]")
"45.3 ng/mL"
>>> result("COc1cc2ncnc(Nc3ccc(F)c(Cl)c3)c2cc1OCCCN1CCOCC1 [GEF, Gefitinib]")
"259 ng/mL"

* * *

# assay text: Pharmacokinetics of ERL and GEF in Wistar rats after four weeks consumption of water or flavoured water (plasma, UPLC-MS/MS, non-compartmental analysis)
# Format: in vivo
# run parameters: male, Wistar, rat, plasma, po, 20 mg/kg, rats, 20 mg/kg oral; +Berry FW; average; time 5 h; read-out: Conc*10 (ng/mL plasma)
measured quantity: concentration at 5 h (ng/mL)

>>> recorded_number("C#Cc1cccc(Nc2ncnc3cc(OCCOC)c(OCCOC)cc23)c1 [ERL, Erlotinib]")
45.6
>>> recorded_number("COc1cc2ncnc(Nc3ccc(F)c(Cl)c3)c2cc1OCCCN1CCOCC1 [GEF, Gefitinib]")
150

* * *

# assay text: Pharmacokinetics of ERL and GEF in Wistar rats after four weeks consumption of water or flavoured water (plasma, UPLC-MS/MS, non-compartmental analysis)
# Format: in vivo
# run parameters: male, Wistar, rat, plasma, oral, 20 mg/kg, PKSolver sheet; dose 20 mg/kg; +Berry; time 48 h; read-out: Conc
# concentration at 48 h per entry
measured quantity: concentration at 48 h (ng/mL)

>>> recorded_number("C#Cc1cccc(Nc2ncnc3cc(OCCOC)c(OCCOC)cc23)c1 [ERL, Erlotinib]")
8.18
>>> recorded_number("COc1cc2ncnc(Nc3ccc(F)c(Cl)c3)c2cc1OCCCN1CCOCC1 [GEF, Gefitinib]")
30.2

* * *

# assay text: Pharmacokinetics of ERL and GEF in Wistar rats after four weeks consumption of water or flavoured water (plasma, UPLC-MS/MS, non-compartmental analysis)
# Format: in vivo
# run parameters: male, Wistar, rat, plasma, po, 20 mg/kg, raw data sheet, from average profile; +Peach FW; read-out: tmax
Reported Tmax values follow for various compounds
measured quantity: Tmax

>>> result("C#Cc1cccc(Nc2ncnc3cc(OCCOC)c(OCCOC)cc23)c1")
"2 h"
>>> result("COc1cc2ncnc(Nc3ccc(F)c(Cl)c3)c2cc1OCCCN1CCOCC1")
"2 h"

* * *

# assay text: Pharmacokinetics of ERL and GEF in Wistar rats after four weeks consumption of water or flavoured water (plasma, UPLC-MS/MS, non-compartmental analysis)
# Type: in vivo
# run parameters: male, Wistar, rat, plasma, oral, 20 mg/kg, PKSolver sheet; dose 20 mg/kg; +Pineapple; time 1 h; read-out: Conc
measured quantity: concentration at 1 h (ng/mL)

>>> recorded_number("C#Cc1cccc(Nc2ncnc3cc(OCCOC)c(OCCOC)cc23)c1")
36.6
>>> recorded_number("COc1cc2ncnc(Nc3ccc(F)c(Cl)c3)c2cc1OCCCN1CCOCC1")
302
